- Assay system: human IL-6 (human, UniProt P05231 30-212)
- Sequence (P05231 30-212 limits assumed): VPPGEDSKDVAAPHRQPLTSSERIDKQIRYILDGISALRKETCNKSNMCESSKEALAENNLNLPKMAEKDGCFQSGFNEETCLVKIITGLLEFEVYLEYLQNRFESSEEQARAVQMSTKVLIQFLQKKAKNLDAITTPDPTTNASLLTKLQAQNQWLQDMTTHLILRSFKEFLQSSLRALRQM
- Assay overview: SPR Biacore, supernatant, Protein A capture, 37 C
- Protocol: Those four positions were selected based on their tolerance for mutations as observed in bacterial and mammalian screens. […] These cultures were centrifuged and supernatants containing secreted antibodies were harvested and diluted in HBS-EP+ running buffer (1:20 ratio). Antibodies were captured on a Protein A chip (GE) by injecting 1:20 cell supernatant dilutions at 10 μL/min for 60 seconds. […]
Each entry below carries its reported koff.
Quick reminder: number only, in s⁻¹, skip the unit.

Anti-IL-6 antibody, heavy chain S35H, G66D, L100P / light chain M32L, M50D, N52S, M88Q (antibody, IgG1, V domains shown, IgG1; variable domains only; VL is variant III) VH: EVQLVESGGGLVQPGGSLRLSCAASGFTFSPFAMHWVRQAPGKGLEWVAKISPGGSWTYYSDTVTDRFTFSLDTSKSTAYLQMNSLRAEDTAVYYCARQPWGYYALDIWGQGTLVTVSS VL: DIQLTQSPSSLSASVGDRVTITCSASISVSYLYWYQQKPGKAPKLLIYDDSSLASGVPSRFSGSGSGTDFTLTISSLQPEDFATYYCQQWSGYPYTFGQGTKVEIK : 0.00354
Anti-IL-6 antibody, heavy chain S35H, G66D, L100A / light chain WT (antibody, IgG1, V domains shown, IgG1; variable domains only) VH: EVQLVESGGGLVQPGGSLRLSCAASGFTFSPFAMHWVRQAPGKGLEWVAKISPGGSWTYYSDTVTDRFTFSLDTSKSTAYLQMNSLRAEDTAVYYCARQAWGYYALDIWGQGTLVTVSS VL: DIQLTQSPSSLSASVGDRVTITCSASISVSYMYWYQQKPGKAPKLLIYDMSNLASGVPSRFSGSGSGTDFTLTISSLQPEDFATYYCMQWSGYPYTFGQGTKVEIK : 0.000833

We next turn to a different binder, shown below.
## Input Find the recorded koff belonging to Anti-IL-6 antibody, heavy chain S35H, G66D, L100S / light chain WT (antibody, IgG1, V domains shown, IgG1; variable domains only) VH: EVQLVESGGGLVQPGGSLRLSCAASGFTFSPFAMHWVRQAPGKGLEWVAKISPGGSWTYYSDTVTDRFTFSLDTSKSTAYLQMNSLRAEDTAVYYCARQSWGYYALDIWGQGTLVTVSS VL: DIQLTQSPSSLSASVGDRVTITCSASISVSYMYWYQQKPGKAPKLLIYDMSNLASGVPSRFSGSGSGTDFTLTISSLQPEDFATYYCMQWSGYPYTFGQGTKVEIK and report it.
## Output 0.000644
